Assign EC50 to each entry below.
- Tested on: 518A2
- experimentSummary: Cytotoxicity against human 518A2 cells after 96 hrs by SRB assay
- Format: functional, cell-based
- experimentalParameters: 518A2, 96 h

*Q* Please look up its EC50: COC(=O)[C@]12CC[C@@H]([C@@H](C)N)[C@@H]1[C@H]1CC[C@@H]3[C@@]4(C)CC[C@H](OC(C)=O)C(C)(C)[C@@H]4CC[C@@]3(C)[C@]1(C)CC2
*A* 4.1 µM

*Q* Also CCC(=O)O/N=C(\C)[C@@H]1CC[C@]2(C(=O)OC)CC[C@]3(C)[C@H](CC[C@@H]4[C@@]5(C)CC[C@H](OC(C)=O)C(C)(C)[C@@H]5CC[C@]43C)[C@@H]12 , if possible.
*A* 17.9 µM

*Q* Input COC(=O)[C@]12CC[C@@H]([C@@H](C)NC(C)=O)[C@@H]1[C@H]1CC[C@@H]3[C@@]4(C)CC[C@H](OC(C)=O)C(C)(C)[C@@H]4CC[C@@]3(C)[C@]1(C)CC2
*A* 27 µM

*Q* And the next one, CC(=O)[C@@H]1CC[C@]2(C(=O)OCc3ccccc3)CC[C@]3(C)[C@H](CC[C@@H]4[C@@]5(C)CC[C@H](N)C(C)(C)[C@@H]5CC[C@]43C)[C@@H]12 ?
*A* 1.9 µM

*Q* What would you report for CC(=O)O[C@H]1CC[C@]2(C)[C@H]3CC[C@@H]4[C@H]5[C@H](/C(C)=N\O)CC[C@]5(C(=O)OCc5ccccc5)CC[C@@]4(C)[C@]3(C)CC[C@H]2C1(C)C ?
*A* 16.5 µM

*Q* What about CC(=O)[C@@H]1CC[C@]2(C(=O)OCc3ccccc3)CC[C@]3(C)[C@H](CC[C@@H]4[C@@]5(C)CC[C@@H](N)C(C)(C)[C@@H]5CC[C@]43C)[C@@H]12 ?
*A* 2.3 µM

*Q* Then what about the compound CC(=O)O[C@H]1CC[C@]2(C)[C@H]3CC[C@@H]4[C@H]5[C@H]([C@@H](C)N)CC[C@]5(C(=O)OCc5ccccc5)CC[C@@]4(C)[C@]3(C)CC[C@H]2C1(C)C ?
*A* 2.2 µM

*Q* Continue with CC(=O)O[C@H]1CC[C@]2(C)[C@H]3CC[C@@H]4[C@H]5[C@H](C(C)=O)CC[C@]5(C(=O)NCCN)CC[C@@]4(C)[C@]3(C)CC[C@H]2C1(C)C
*A* 3.2 µM

*Q* Repeat for the following compound: CC(=O)O[C@H]1CC[C@]2(C)[C@H]3CC[C@@H]4[C@H]5[C@H](C(C)=O)CC[C@]5(C(=O)O)CC[C@@]4(C)[C@]3(C)CC[C@H]2C1(C)C
*A* > 30 µM

*Q* Then what about the compound COC(=O)[C@]12CC[C@@H]([C@H](C)N)[C@@H]1[C@H]1CC[C@@H]3[C@@]4(C)CC[C@H](OC(C)=O)C(C)(C)[C@@H]4CC[C@@]3(C)[C@]1(C)CC2 ?
*A* 6.3 µM

----------
- Test system: HT-29
- experimentSummary: cells
- experimentalParameters: Homo sapiens, HT-29, 96 h
- Description: Cytotoxicity against human HT-29 cells after 96 hrs by SRB assay
Consider the following molecules; for each one, report its EC50.
Report the value in µM with no unit label.

*Q* # lookup: EC50 of CC(=O)[C@@H]1CC[C@]2(C(=O)NCCN3CCCC3)CC[C@]3(C)[C@H](CC[C@@H]4[C@@]5(C)CC[C@H](O)C(C)(C)[C@@H]5CC[C@]43C)[C@@H]12
*A* 2.8

*Q* Now consider CC(=O)O[C@H]1CC[C@]2(C)[C@H]3CC[C@@H]4[C@H]5[C@H](C(C)=O)CC[C@]5(C(=O)NCCN(C)C)CC[C@@]4(C)[C@]3(C)CC[C@H]2C1(C)C .
*A* 4.5

*Q* Another molecule: CC(=O)[C@@H]1CC[C@]2(N)CC[C@]3(C)[C@H](CC[C@@H]4[C@@]5(C)CC[C@H](O)C(C)(C)[C@@H]5CC[C@]43C)[C@@H]12
*A* 18.7
